- Target under test: NLRP3 inflammasome (Mus musculus)
- Construct: endogenous in cells; host or cells: primary microglia from cortices of 2-3 day old WT mouse pups
- Sequence (Q8R4B8 whole entry): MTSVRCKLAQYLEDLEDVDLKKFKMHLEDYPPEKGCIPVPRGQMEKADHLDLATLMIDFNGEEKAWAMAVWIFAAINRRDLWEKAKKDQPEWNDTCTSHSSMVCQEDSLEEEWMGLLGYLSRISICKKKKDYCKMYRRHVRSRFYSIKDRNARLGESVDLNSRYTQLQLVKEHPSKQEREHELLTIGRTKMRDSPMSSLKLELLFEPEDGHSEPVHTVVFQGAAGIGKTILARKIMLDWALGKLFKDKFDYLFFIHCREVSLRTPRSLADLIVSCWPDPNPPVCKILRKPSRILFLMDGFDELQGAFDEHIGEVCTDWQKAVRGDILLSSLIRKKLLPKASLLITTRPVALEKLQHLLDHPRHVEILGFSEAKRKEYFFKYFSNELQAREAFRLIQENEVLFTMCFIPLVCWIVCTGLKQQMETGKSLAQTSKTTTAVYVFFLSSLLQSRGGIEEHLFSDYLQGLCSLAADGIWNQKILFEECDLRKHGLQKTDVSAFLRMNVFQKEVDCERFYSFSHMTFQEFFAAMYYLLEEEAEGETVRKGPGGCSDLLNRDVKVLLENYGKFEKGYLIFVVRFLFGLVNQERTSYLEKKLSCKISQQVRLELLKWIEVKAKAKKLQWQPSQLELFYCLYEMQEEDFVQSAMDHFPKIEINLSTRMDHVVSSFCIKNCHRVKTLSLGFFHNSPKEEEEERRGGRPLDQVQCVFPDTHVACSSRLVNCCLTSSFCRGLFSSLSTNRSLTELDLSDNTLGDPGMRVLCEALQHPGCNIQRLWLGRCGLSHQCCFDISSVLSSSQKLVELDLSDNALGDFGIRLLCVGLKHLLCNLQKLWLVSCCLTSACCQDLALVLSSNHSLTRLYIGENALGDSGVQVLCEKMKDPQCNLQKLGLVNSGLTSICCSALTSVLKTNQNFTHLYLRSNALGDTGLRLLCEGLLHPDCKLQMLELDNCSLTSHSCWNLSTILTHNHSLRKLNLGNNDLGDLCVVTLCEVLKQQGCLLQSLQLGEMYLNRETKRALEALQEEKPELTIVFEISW
- Assay text: NLRP3 inflammasome activation assay: IL-1β release by primary microglia after LPS and ATP
- Format: cell-based, murine
- Experimental parameters: FIG. 3A; read-out: NLRP3 IC50
Readout name: pIC50
pIC50 is a log-scale quantity: -log10 of the concentration expressed in molar.

Requested read-out: pIC50. Entry: `O=C(Cn1c(=O)oc2ccccc21)NCc1cncc(-c2ccsc2)c1` 5.45
